Tested on: 317291-083-R-J1-PDC complex spheroids, viability
Test: Anticancer human tumor 317291-083-R-J1-PDC patient-derived soft tissue sarcoma cell line growth inhibition [GQUAD]
Conditions: second compound 10 µM; first compound 0.1 µM; stronger effect = lower value
Description: DNA G-quadruplex Stabilizer Agents in Combinations in Complex Spheroids A high-throughput screen of multi-cell type tumor spheroids was designed to identify active combinations of DNA G-quadruplex stabilizer agents and targeted small molecules. […] Compounds. […] If the clinical Cmax for an agent had not been determined, the highest concentration tested was 10 microM. […]

>  <molecule>
CC(C)n1c(=O)n(C)c2cnc3cc(F)c(-c4ccc(OCCCN5CCCCC5)nc4)cc3c21 + Cc1[nH]c2ccc(F)cc2c1-c1nc2c3cccnc3c3ncccc3c2[nH]1

>  <units.symbol>
%

>  <viability, T/C>
107

$$$$
>  <molecule>
COc1cc(C2c3cc4c(cc3C(OC3OC5COC(C)OC5C(O)C3O)C3COC(=O)C23)OCO4)cc(OC)c1O (stereo not given) + Cc1cnc(CNC(=O)c2c(=O)c3ccc(N4CCCN(C)CC4)nc3n3c2sc2ccccc23)cn1

>  <units.symbol>
%

>  <viability, T/C>
14.6

$$$$
>  <molecule>
CC1COCCN1c1cc(C2(O)CC3CCC(C2)O3)c2cnn(-c3ccn[nH]3)c2n1 (stereo not given) + CN(C)c1ccc(Nc2c3ccc(NC(=O)CCN4CCCC4)cc3nc3cc(NC(=O)CCN4CCCC4)ccc23)cc1

>  <units.symbol>
%

>  <viability, T/C>
3.93

$$$$
>  <molecule>
CC(=O)O[C@H]1C(=O)[C@@]2(C)[C@H]([C@H](OC(=O)c3ccccc3)[C@]3(O)C[C@H](OC(=O)[C@H](O)[C@@H](NC(=O)c4ccccc4)c4ccccc4)C(C)=C1C3(C)C)[C@]1(OC(C)=O)CO[C@@H]1C[C@@H]2O + CN(C)c1ccc(Nc2c3ccc(NC(=O)CCN4CCCC4)cc3nc3cc(NC(=O)CCN4CCCC4)ccc23)cc1

>  <units.symbol>
%

>  <viability, T/C>
0.27

$$$$
>  <molecule>
O=C(NO)c1cnc(N2CCN(S(=O)(=O)c3ccc4ccccc4c3)CC2)nc1 + Cc1[nH]c2ccc(F)cc2c1-c1nc2c3cccnc3c3ncccc3c2[nH]1

>  <units.symbol>
%

>  <viability, T/C>
35.3

$$$$
>  <molecule>
Cc1cccc(N(C)C(=O)C2C(O)CCN2c2nc(C)cc(C(F)(F)F)c2C#N)c1 (stereo not given) + Cc1cnc(CNC(=O)c2c(=O)c3ccc(N4CCCN(C)CC4)nc3n3c2sc2ccccc23)cn1

>  <units.symbol>
%

>  <viability, T/C>
35.5

$$$$
>  <molecule>
O=C(c1cc(Cc2n[nH]c(=O)c3ccccc23)ccc1F)N1CCN(C(=O)C2CC2)CC1 + Cc1[nH]c2ccc(F)cc2c1-c1nc2c3cccnc3c3ncccc3c2[nH]1

>  <units.symbol>
%

>  <viability, T/C>
84.4

$$$$
>  <molecule>
C#Cc1c(F)ccc2cc(O)cc(-c3ncc4c(N5CC6CCC(C5)N6)nc(OCC56CCCN5CC(F)C6)nc4c3F)c12 (stereo not given) + Cc1[nH]c2ccc(F)cc2c1-c1nc2c3cccnc3c3ncccc3c2[nH]1

>  <units.symbol>
%

>  <viability, T/C>
60.2

$$$$
>  <molecule>
COc1ncnc(C2CC2)c1-c1ncc2cnn(Cc3ccc(-c4nc(C(F)(F)F)cn4C(C)C)cc3)c2n1 + Cc1[nH]c2ccc(F)cc2c1-c1nc2c3cccnc3c3ncccc3c2[nH]1

>  <units.symbol>
%

>  <viability, T/C>
35.8

$$$$
>  <molecule>
C#Cc1c(F)ccc2cc(O)cc(-c3ncc4c(N5CC6CCC(C5)N6)nc(OCC56CCCN5CC(F)C6)nc4c3F)c12 (stereo not given) + CN(C)c1ccc(Nc2c3ccc(NC(=O)CCN4CCCC4)cc3nc3cc(NC(=O)CCN4CCCC4)ccc23)cc1

>  <units.symbol>
%

>  <viability, T/C>
0.73

$$$$
>  <molecule>
CC(C)(O)C1CCC(Nc2ccc3ncc(-c4cccc(C(F)(F)F)c4)n3n2)CC1 (stereo not given) + Cc1cnc(CNC(=O)c2c(=O)c3ccc(N4CCCN(C)CC4)nc3n3c2sc2ccccc23)cn1

>  <units.symbol>
%

>  <viability, T/C>
0.11

$$$$
>  <molecule>
C=CCn1c(=O)c2cnc(Nc3ccc(N4CCN(C)CC4)cc3)nc2n1-c1cccc(C(C)(C)O)n1 + Cc1cnc(CNC(=O)c2c(=O)c3ccc(N4CCCN(C)CC4)nc3n3c2sc2ccccc23)cn1

>  <units.symbol>
%

>  <viability, T/C>
0.27

$$$$
>  <molecule>
CC1COCCN1c1cc(C2(O)CC3CCC(C2)O3)c2cnn(-c3ccn[nH]3)c2n1 (stereo not given) + Cc1cnc(CNC(=O)c2c(=O)c3ccc(N4CCCN(C)CC4)nc3n3c2sc2ccccc23)cn1

>  <units.symbol>
%

>  <viability, T/C>
9.14

$$$$
>  <molecule>
O=c1[nH]cc(F)c(=O)[nH]1 + Cc1cnc(CNC(=O)c2c(=O)c3ccc(N4CCCN(C)CC4)nc3n3c2sc2ccccc23)cn1

>  <units.symbol>
%

>  <viability, T/C>
28

$$$$
>  <molecule>
O=C(NO)c1cnc(N2CCN(S(=O)(=O)c3ccc4ccccc4c3)CC2)nc1 + CN(C)c1ccc(Nc2c3ccc(NC(=O)CCN4CCCC4)cc3nc3cc(NC(=O)CCN4CCCC4)ccc23)cc1

>  <units.symbol>
%

>  <viability, T/C>
0.76

$$$$
>  <molecule>
CC(C)n1c(=O)n(C)c2cnc3cc(F)c(-c4ccc(OCCCN5CCCCC5)nc4)cc3c21 + CN(C)c1ccc(Nc2c3ccc(NC(=O)CCN4CCCC4)cc3nc3cc(NC(=O)CCN4CCCC4)ccc23)cc1

>  <units.symbol>
%

>  <viability, T/C>
3.95

$$$$
>  <molecule>
CC1COCCN1c1cc(C2(S(C)(=N)=O)CC2)nc(-c2ccnc3[nH]ccc23)n1 (stereo not given) + Cc1cnc(CNC(=O)c2c(=O)c3ccc(N4CCCN(C)CC4)nc3n3c2sc2ccccc23)cn1

>  <units.symbol>
%

>  <viability, T/C>
19.8

$$$$
>  <molecule>
Cc1cccc(N(C)C(=O)C2C(O)CCN2c2nc(C)cc(C(F)(F)F)c2C#N)c1 (stereo not given) + Cc1[nH]c2ccc(F)cc2c1-c1nc2c3cccnc3c3ncccc3c2[nH]1

>  <units.symbol>
%

>  <viability, T/C>
89.6

$$$$
>  <molecule>
C=CC(=O)N1CCN(c2nc(=O)n(-c3c(C)ccnc3C(C)C)c3nc(-c4c(O)cccc4F)c(F)cc23)C(C)C1 (stereo not given) + Cc1cnc(CNC(=O)c2c(=O)c3ccc(N4CCCN(C)CC4)nc3n3c2sc2ccccc23)cn1

>  <units.symbol>
%

>  <viability, T/C>
63.3

$$$$
>  <molecule>
COc1cc(C2c3cc4c(cc3C(OC3OC5COC(C)OC5C(O)C3O)C3COC(=O)C23)OCO4)cc(OC)c1O (stereo not given) + Cc1[nH]c2ccc(F)cc2c1-c1nc2c3cccnc3c3ncccc3c2[nH]1

>  <units.symbol>
%

>  <viability, T/C>
57.6

$$$$

---

tested on: 317291-083-R-J1-PDC complex spheroids, viability; assay: Anticancer human tumor 317291-083-R-J1-PDC cell line growth inhibition [GQUAD]; details: second compound 0.0316 µM; first compound 1 µM; stronger effect = lower value;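 note: spheroids exposed to compounds for one week before readout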;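 for viability, T/C: percent viability relative to DMSO vehicle wells taken as 100%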
Labelling field: enter rule met if recorded viability, T/C is less than 90%. Enter rule not met if it equals or exceeds that cut-off.

>  <compound>
CC1COCCN1c1cc(C2(O)CC3CCC(C2)O3)c2cnn(-c3ccn[nH]3)c2n1 (stereo not given) + Cc1[nH]c2ccc(F)cc2c1-c1nc2c3cccnc3c3ncccc3c2[nH]1

>  <qualitative.label>
rule met

$$$$
>  <compound>
COc1cc(C2c3cc4c(cc3C(OC3OC5COC(C)OC5C(O)C3O)C3COC(=O)C23)OCO4)cc(OC)c1O (stereo not given) + Cc1[nH]c2ccc(F)cc2c1-c1nc2c3cccnc3c3ncccc3c2[nH]1

>  <qualitative.label>
rule met

$$$$
>  <compound>
CC(C)n1c(=O)n(C)c2cnc3cc(F)c(-c4ccc(OCCCN5CCCCC5)nc4)cc3c21 + Cc1[nH]c2ccc(F)cc2c1-c1nc2c3cccnc3c3ncccc3c2[nH]1

>  <qualitative.label>
rule not met

$$$$

---

test system: 317291-083-R-J1-PDC complex spheroids, viability; assay: Anticancer human tumor 317291-083-R-J1-PDC cell line growth inhibition [GQUAD]; conditions: curve of first compound; second compound 0.0316 µM;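 note: spheroids exposed to compounds for one week before readout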
Labelling field: enter satisfied if recorded IC50 is less than 100 nM. Enter not satisfied if it equals or exceeds that cut-off.

>  <molecule>
CC1COCCN1c1cc(C2(S(C)(=N)=O)CC2)nc(-c2ccnc3[nH]ccc23)n1 (stereo not given) + Cc1[nH]c2ccc(F)cc2c1-c1nc2c3cccnc3c3ncccc3c2[nH]1

>  <qualitative.label>
not satisfied

$$$$
>  <molecule>
C#Cc1c(F)ccc2cc(O)cc(-c3ncc4c(N5CC6CCC(C5)N6)nc(OCC56CCCN5CC(F)C6)nc4c3F)c12 (stereo not given) + Cc1[nH]c2ccc(F)cc2c1-c1nc2c3cccnc3c3ncccc3c2[nH]1

>  <qualitative.label>
not satisfied

$$$$
>  <molecule>
CC(=O)O[C@H]1C(=O)[C@@]2(C)[C@H]([C@H](OC(=O)c3ccccc3)[C@]3(O)C[C@H](OC(=O)[C@H](O)[C@@H](NC(=O)c4ccccc4)c4ccccc4)C(C)=C1C3(C)C)[C@]1(OC(C)=O)CO[C@@H]1C[C@@H]2O + Cc1[nH]c2ccc(F)cc2c1-c1nc2c3cccnc3c3ncccc3c2[nH]1

>  <qualitative.label>
satisfied

$$$$
>  <molecule>
Cn1ncnc1[C@H]1c2n[nH]c(=O)c3cc(F)cc(c23)N[C@@H]1c1ccc(F)cc1 + Cc1[nH]c2ccc(F)cc2c1-c1nc2c3cccnc3c3ncccc3c2[nH]1

>  <qualitative.label>
not satisfied

$$$$
>  <molecule>
Cc1cccc(N(C)C(=O)C2C(O)CCN2c2nc(C)cc(C(F)(F)F)c2C#N)c1 (stereo not given) + Cc1cnc(CNC(=O)c2c(=O)c3ccc(N4CCCN(C)CC4)nc3n3c2sc2ccccc23)cn1

>  <qualitative.label>
not satisfied

$$$$
>  <molecule>
C=CCn1c(=O)c2cnc(Nc3ccc(N4CCN(C)CC4)cc3)nc2n1-c1cccc(C(C)(C)O)n1 + Cc1cnc(CNC(=O)c2c(=O)c3ccc(N4CCCN(C)CC4)nc3n3c2sc2ccccc23)cn1

>  <qualitative.label>
not satisfied

$$$$
>  <molecule>
O=C(NO)c1cnc(N2CCN(S(=O)(=O)c3ccc4ccccc4c3)CC2)nc1 + Cc1cnc(CNC(=O)c2c(=O)c3ccc(N4CCCN(C)CC4)nc3n3c2sc2ccccc23)cn1

>  <qualitative.label>
not satisfied

$$$$
>  <molecule>
COc1ccc([C@@H](O)c2cc(-c3ncnc4cc(N5CCOCC5)ccc34)c(F)cc2Cl)nn1 + CN(C)c1ccc(Nc2c3ccc(NC(=O)CCN4CCCC4)cc3nc3cc(NC(=O)CCN4CCCC4)ccc23)cc1

>  <qualitative.label>
not satisfied

$$$$
>  <molecule>
CCc1c2c(nc3ccc(O)cc13)-c1cc3c(c(=O)n1C2)COC(=O)[C@]3(O)CC + CN(C)c1ccc(Nc2c3ccc(NC(=O)CCN4CCCC4)cc3nc3cc(NC(=O)CCN4CCCC4)ccc23)cc1

>  <qualitative.label>
satisfied

$$$$
>  <molecule>
CC1COCCN1c1cc(C2(O)CC3CCC(C2)O3)c2cnn(-c3ccn[nH]3)c2n1 (stereo not given) + Cc1[nH]c2ccc(F)cc2c1-c1nc2c3cccnc3c3ncccc3c2[nH]1

>  <qualitative.label>
satisfied

$$$$
